- System: 556581-035-R-J1 tumor spheroid viability, % test/control;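 also: spheroids exposed to compounds for 7 days before viability read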
- assay-info: Anticancer human tumor 556581-035-R-J1 patient-derived ovarian carcinoma cell line growth inhibition
- experimental-context: second compound 30 pM; first compound 0.0316 µM; active compounds read low; spheroids with HUVEC and MSC
# key: entry, value: viability, T/C

molecule	measurement-label	recorded-measurement
COc1cc(C)[nH]c(=O)c1CN1CCc2c(Cl)cc(C(OC)C3COC3)c(Cl)c2C1=O (configuration not stated) + COc1cc2c(cc1O)CCNC21CSC2c3c(OC(C)=O)c(C)c4c(c3C(COC1=O)N1C(O)C3Cc5cc(C)c(OC)c(O)c5C(C21)N3C)OCO4	viability, T/C	106%

Here is the next item to consider.
Asked: Any idea what its viability, T/C is? The molecule is CC1COCCN1c1cc(-c2ccnn2C)c2ccnc(-c3ccn[nH]3)c2n1 (configuration not stated) + COc1cc2c(cc1O)CCNC21CSC2c3c(OC(C)=O)c(C)c4c(c3C(COC1=O)N1C(O)C3Cc5cc(C)c(OC)c(O)c5C(C21)N3C)OCO4
Given back: 93.9%

Where do the numbers come from? From PubChem BioAssay AID1845199.
